Value source: patent US9511073B2

assay: Pharmacokinetic assay: plasma concentration by LC/MS/MS after single intravenous or peroral dose of 3 mg/kg; assay type: in vivo; details: mouse, plasma; 3 mg/kg IV dosing in mice
We label by threshold. Values of clearance strictly beneath 200 mL/min/kg are T. Values of 200 mL/min/kg and up are F.

Input line: Does this molecule meet the criterion clearance < 200 mL/min/kg? `Cc1ccc(-c2csc(COc3ccc(F)c(C(N)=O)c3F)n2)cn1`
Output line: T

Input line: Does this molecule meet the criterion clearance < 200 mL/min/kg? `COc1ncc(-c2csc(COc3ccc(F)c(C(N)=O)c3F)n2)s1`
Output line: T

Input line: Does this molecule meet the criterion clearance < 200 mL/min/kg? `Cc1noc(CCc2csc(COc3ccc(F)c(C(N)=O)c3F)n2)n1`
Output line: T

Input line: Does this molecule meet the criterion clearance < 200 mL/min/kg? `NC(=O)c1c(F)ccc(OCc2nc(-c3cnc(Cl)nc3)cs2)c1F`
Output line: T

Input line: Does this molecule meet the criterion clearance < 200 mL/min/kg? `C=CCc1oc(COc2ccc(F)c(C(N)=O)c2F)nc1-c1cccc(O)c1`
Output line: F

Input line: Does this molecule meet the criterion clearance < 200 mL/min/kg? NC(=O)c1c(F)ccc(OC(CO)c2nc(-c3ccc(C(F)(F)F)cc3)c(Br)o2)c1F (racemic)
Output line: T

Input line: Does this molecule meet the criterion clearance < 200 mL/min/kg? `CCCc1oc(COc2ccc(F)c(C(N)=O)c2F)nc1-c1cccc(O)c1`
Output line: F

---

system: Staphylococcus aureus (Isolate ID ATCC 29213); experiment: Bacterial assay: MIC by broth microdilution or agar dilution (CLSI), S. aureus ATCC 29213; assay type: cell-based; details: Staphylococcus aureus, ATCC29213, read-out: S. aureus MIC (μg/mL) Activity Range, S. aureus (ATCC29213)
metric-name: MIC

[[record]]
molecule = "COCc1oc([C@@H](CO)Oc2ccc(F)c(C(N)=O)c2F)nc1-c1ccc(OC)cc1 [Compound 304B]"
metric_name = "MIC"
observed = "1 to 16 µg/mL"

[[record]]
molecule = "NC(=O)c1c(F)ccc(OC(COC(=O)CN2C(=O)c3ccccc3C2=O)c2nc(-c3ccc(C(F)(F)F)cc3)c(Br)o2)c1F (stereo not drawn)"
metric_name = "MIC"
observed = "0.25 to 1 µg/mL"

[[record]]
molecule = "CCCCc1oc(C(CO)Oc2ccc(F)c(C(N)=O)c2F)nc1-c1ccc(C(F)(F)F)cc1 (stereo not drawn)"
metric_name = "MIC"
observed = "1 to 16 µg/mL"


Input line: So what's the measured MIC for this one? NC(=O)c1c(F)ccc(OC(CO)c2nc(-c3ccc(Cl)c(F)c3)c(Br)o2)c1F (stereo not drawn)
Output line: 0.25 to 1 µg/mL

Input line: So what's the measured MIC for this one? NC(=O)CC(Oc1ccc(F)c(C(N)=O)c1F)c1nc(-c2ccc(C(F)(F)F)cc2)c(Br)o1 (stereo not drawn)
Output line: 1 to 16 µg/mL

Input line: So what's the measured MIC for this one? NC(=O)c1c(F)ccc(OC(CO)c2nc(C3CCOCC3)c(Br)o2)c1F (stereo not drawn)
Output line: > 16 µg/mL

Input line: So what's the measured MIC for this one? NC(=O)c1c(F)ccc(OC(CCCO)c2nc(-c3ccc(C(F)(F)F)cc3)c(Br)o2)c1F (stereo not drawn)
Output line: 0.25 to 1 µg/mL

Input line: So what's the measured MIC for this one? NC(=O)c1c(F)ccc(OC(CO)c2nc(-c3ccc(Cl)c(F)c3)co2)c1F (stereo not drawn)
Output line: > 16 µg/mL

Input line: So what's the measured MIC for this one? CNc1ccc(-c2nc(C(CO)Oc3ccc(F)c(C(N)=O)c3F)oc2Br)cn1 (stereo not drawn)
Output line: > 16 µg/mL

Input line: So what's the measured MIC for this one? COc1ncccc1CNC(=O)OCC(Oc1ccc(F)c(C(N)=O)c1F)c1nc(-c2ccc(C(F)(F)F)cc2)c(Br)o1 (stereo not drawn)
Output line: < 0.25 µg/mL

---

# maps each entry to its MIC
test system: Staphylococcus aureus (Isolate ID ATCC 29213); assay: Bacterial assay: MIC by broth microdilution or agar dilution (CLSI), S. aureus ATCC 29213; format: cell-based; conditions: Staphylococcus aureus, ATCC29213, read-out: S. aureus MIC (μg/mL) Activity Range, S. aureus (ATCC29213)

Study these solved cases before continuing.
[[record]]
compound = "COc1cnc(-c2csc(C(CO)Oc3ccc(F)c(C(N)=O)c3F)n2)cn1 (stereo not drawn)"
assayed_target = "Staphylococcus aureus (Isolate ID ATCC 29213)"
observed = "1 to 16 µg/mL"

[[record]]
compound = "CN(CCNC(=O)OCC(Oc1ccc(F)c(C(N)=O)c1F)c1nc(-c2ccc(C(F)(F)F)cc2)c(Br)o1)C(=O)OC(C)(C)C (stereo not drawn)"
assayed_target = "Staphylococcus aureus (Isolate ID ATCC 29213)"
observed = "0.25 to 1 µg/mL"


Attention now turns to another entry.
Input line: So what's the measured MIC for this one? NC(=O)c1c(F)ccc(OC(COC(=O)NCC(=O)O)c2nc(-c3ccc(C(F)(F)F)cc3)c(Br)o2)c1F (stereo not drawn)
Output line: > 16 µg/mL

---

# maps each entry to its MIC
system: Staphylococcus aureus (Isolate ID ATCC 29213); experiment: Bacterial assay: MIC by broth microdilution or agar dilution (CLSI), S. aureus ATCC 29213; type: cell-based; conditions: Staphylococcus aureus, ATCC29213, read-out: S. aureus MIC (μg/mL) Activity Range, S. aureus (ATCC29213)

Input line: So what's the measured MIC for this one? CC(=O)OCC(COC(C)=O)CC(Oc1ccc(F)c(C(N)=O)c1F)c1nc(-c2ccc(C(F)(F)F)cc2)c(Br)o1 (stereo not drawn)
Output line: > 16 µg/mL

Input line: So what's the measured MIC for this one? Cc1noc(CNC(=O)OCC(Oc2ccc(F)c(C(N)=O)c2F)c2nc(-c3ccc(C(F)(F)F)cc3)c(Br)o2)n1 (stereo not drawn)
Output line: < 0.25 µg/mL

Input line: So what's the measured MIC for this one? NC(=O)c1c(F)ccc(OC(CCO)c2nc(-c3ccc(C(F)(F)F)cc3)c(Br)o2)c1F (stereo not drawn)
Output line: 0.25 to 1 µg/mL

Input line: So what's the measured MIC for this one? NC(=O)c1c(F)ccc(OC(COC(=O)NCc2cccc[n+]2[O-])c2nc(-c3ccc(C(F)(F)F)cc3)c(Br)o2)c1F (stereo not drawn)
Output line: 0.25 to 1 µg/mL

Input line: So what's the measured MIC for this one? CCCc1oc(C(CCC)Oc2ccc(F)c(C(N)=O)c2F)nc1-c1ccc(Cl)cc1 (stereo not drawn)
Output line: 1 to 16 µg/mL

Input line: So what's the measured MIC for this one? NC(=O)c1c(F)ccc(OC(COC(=O)NCc2ccc[n+]([O-])c2)c2nc(-c3ccc(C(F)(F)F)cc3)c(Br)o2)c1F (stereo not drawn)
Output line: > 16 µg/mL

Input line: So what's the measured MIC for this one? COCCOCC(Oc1ccc(F)c(C(N)=O)c1F)c1nc(-c2ccc(C(F)(F)F)cc2)c(Br)o1 (stereo not drawn)
Output line: 0.25 to 1 µg/mL

Input line: So what's the measured MIC for this one? NC(=O)c1c(F)ccc(OC(CO)c2nc(-c3ccc(F)cc3F)co2)c1F (stereo not drawn)
Output line: > 16 µg/mL

Input line: So what's the measured MIC for this one? CC(=O)OCC(Oc1ccc(F)c(C(N)=O)c1F)c1nc(-c2ccc(C(F)(F)F)cc2)oc1Br (stereo not drawn)
Output line: > 16 µg/mL

---

assay: Pharmacokinetic assay: plasma concentration by LC/MS/MS after single intravenous or peroral dose of 3 mg/kg; format: in vivo; conditions: mouse, plasma; 3 mg/kg IV dosing in mice; read-out: AUC
# maps each entry to its AUC
Write down the numeric answer in µg·h/mL and omit the unit.

Study these solved cases before continuing.
[[record]]
molecule = "NC(=O)c1c(F)ccc(O[C@H](COC(=O)CCC(=O)O)c2nc(-c3ccc(C(F)(F)F)cc3)c(Br)o2)c1F"
unit_info = "µg·h/mL"
observed = 3

[[record]]
molecule = "NC(=O)c1c(F)ccc(O[C@H](CO)c2nc(-c3ccc(C(F)(F)F)cc3)c(Br)o2)c1F (single isomer, unassigned) [Compound 38B]"
unit_info = "µg·h/mL"
observed = 4

[[record]]
molecule = "NC(=O)c1c(F)ccc(O[C@@H](CO)c2nc(-c3ccc(C(F)(F)F)cc3)c(Br)o2)c1F (single isomer, unassigned) [Compound 38A]"
unit_info = "µg·h/mL"
observed = 7.8


Input line: So what's the measured AUC for this one? NC(=O)c1c(F)ccc(OC(CO)c2nc(-c3ccc(F)cc3F)c(Br)o2)c1F (racemic)
Output line: 2.3

---

experiment: Pharmacokinetic assay: plasma concentration by LC/MS/MS after single intravenous or peroral dose of 3 mg/kg; assay type: in vivo; conditions: mouse, plasma; 3 mg/kg IV dosing in mice
metric-name: clearance (L/h/kg)
Write down the numeric answer in L/h/kg and omit the unit.

Study these solved cases before continuing.
[[record]]
compound = "NC(=O)c1c(F)ccc(OC(CO)c2nc(-c3ccc(F)cc3F)c(Br)o2)c1F (racemic)"
observed = 1.08

[[record]]
compound = "COc1cnc(-c2csc(COc3ccc(F)c(C(N)=O)c3F)n2)cn1"
observed = 4.92


Input line: So what's the measured clearance for this one? NC(=O)c1c(F)ccc(O[C@H](CO)c2nc(-c3ccc(C(F)(F)F)cc3)c(Br)o2)c1F (single isomer, unassigned) [Compound 38B]
Output line: 0.72
